Assay: BHET released, HPLC; higher = more BHET released; extreme values may be limits of the assay
Conditions: PET substrate: aFilm; 70 °C; pH 6.5; 24 h
Task for the reader: assign each of the following sequences its reported BHET released.
I only need the number, in mM, no unit after it.

Provide only the value of recorded BHET released for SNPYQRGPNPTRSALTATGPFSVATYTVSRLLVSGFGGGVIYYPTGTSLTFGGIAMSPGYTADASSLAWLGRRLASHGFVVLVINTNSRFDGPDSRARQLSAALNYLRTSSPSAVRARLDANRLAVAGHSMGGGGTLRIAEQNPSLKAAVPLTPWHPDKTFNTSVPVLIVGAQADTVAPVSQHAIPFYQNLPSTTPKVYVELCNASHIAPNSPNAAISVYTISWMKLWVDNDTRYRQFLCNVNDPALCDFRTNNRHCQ [LCC-ICCG I6M]
0

Provide only the value of recorded BHET released for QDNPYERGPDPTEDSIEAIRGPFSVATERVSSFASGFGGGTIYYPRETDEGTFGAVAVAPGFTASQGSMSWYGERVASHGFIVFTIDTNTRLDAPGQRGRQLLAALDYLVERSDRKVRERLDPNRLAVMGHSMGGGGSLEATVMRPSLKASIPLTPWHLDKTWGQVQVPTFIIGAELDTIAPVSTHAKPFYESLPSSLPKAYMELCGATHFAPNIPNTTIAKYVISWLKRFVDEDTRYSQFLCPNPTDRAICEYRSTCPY [Cut190*SS]
0
